Assay Endpoint: melting point (°C)

O=C(/C=C/C=C/c1ccccc1)/C=C/C=C/c1ccccc1: 142
CCCCCCCCCCCCCCCCCC(=O)O[C@H]1CC[C@@]2(C)C(=CC[C@H]3[C@@H]4CC[C@H]([C@H](C)CCCC(C)C)[C@@]4(C)CC[C@@H]32)C1 [cholesteryl stearate]: 80
NCCCCN [Putrescine]: 27.5
CCOc1ccc(NC(C)=O)cc1 [N-(4-Ethoxyphenyl)acetamide]: 134
ClC1=C(Cl)C2(Cl)C3C(Cl)C(Cl)CC3C1(Cl)C2(Cl)Cl (stereo not drawn) [trans-gamma-chlordane]: 106
CC(C)(C)N [2-amino-2-methylpropane]: -68

a. O=c1c2ccccc2oc2ccccc12
b. CCOC(C)=NOc1ccc([N+](=O)[O-])cc1[N+](=O)[O-] [ethyl n-(2,4-dinitrophenoxy)acetimidate]
c. N[C@@H](Cc1ccc(O)c(O)c1)C(=O)O [Levodopa]
d. BrCC(Br)(Br)CBr
Ascending by melting point, please. Could you list the labels in the order requested? d, b, a, c

----------
Assay Endpoint: melting point (°C)

CC(=O)OCC(=O)c1ccccc1: 89
CN1C(=O)c2ccccc2C1C=C(c1ccccc1)c1ccccc1 (stereo not given): 147
O=C=Nc1ccccc1 [phenyl isocyanate]: -33
OCCN1CCOCC1 [4-(2-hydroxyethyl)morpholine]: 2

I. CCOC(=O)c1ccc(N)cc1 [benzocaine]
II. Cc1cc(O)c(C(C)C)cc1Cl
Compare the recorded melting point of I and II ; state which is larger. Write down the label of the entry you select. I
(I: 92 °C, II: 60 °C)

A. COC(=O)c1sccc1N [methyl 3-aminothiophene-2-carboxylate]
B. CCCCOc1ccccc1 [butyl_phenyl_ether]
C. O=C(O)c1cc(Br)ccc1O
D. CCCOC(=O)c1ccc(O)cc1 [propylparaben]
Ascending by melting point, please. Could you list the labels in the order requested? B, A, D, C
(B: -19 °C, A: 65 °C, D: 96.5 °C, C: 168 °C)

----------
Assay Endpoint: melting point (°C)

Example compounds with recorded melting point:
CC12CCC(C1(C)C)C(C/C=C\c1ccccc1)(C1(C/C=C/c3ccccc3)C(=O)C3(C)CCC1C3(C)C)C2=O (configuration not stated): 152
COc1ccccc1-c1ccc(/C=C/C(=O)c2ccccc2)o1: 99
CCOC(=O)c1ccc(OC)cc1 [ethyl 4-methoxybenzoate]: 8
CCCCOc1ccccc1 [N-butyl phenyl ether]: -19

a. Oc1ccc(-c2nccs2)cc1 [4-(2-thiazolyl)phenol]
b. CCCCCC(O)CC (configuration not stated) [3-octanol]
Compare the recorded melting point of a and b ; state which is larger. Write down the label of the entry you select. a

a. COc1ccc(B(O)O)c(OC)c1 [2,4-dimethoxybenzeneboronic acid]
b. CCCCCCCCC(CCCCCC)C(=O)O (configuration not stated) [2-n-hexyldecanoic acid]
c. O=c1cc(-c2ccc(O)c(O)c2)oc2ccccc12 [3',4'-dihydroxyflavone]
Sequence the entries by melting point, beginning with the highest number. Could you list the labels in the order requested? c, a, b
(c: 251 °C, a: 118 °C, b: 10 °C)

A. CCc1cnc(C(=O)O)c(C(=O)O)c1 [5-ethylpyridine-2,3-dicarboxylic acid]
B. CCB(O)O [ethylboronic acid]
Smaller melting point value? Options are A and B Write down the label of the entry you select. B

a. CC(C)c1ncc([N+](=O)[O-])n1C [ipronidazole]
b. CC(=O)C(C)=O [Biacetyl]
c. O=C2\C(=C(/N(N2c1ccccc1)C)C)N(C)C [aminopyrine]
Sequence the entries by melting point, beginning with the highest number. Could you list the labels in the order requested? c, a, b
(c: 108 °C, a: 61 °C, b: -3 °C)

I. CNc1ccc(C(=O)O)cc1 [4-(methylamino)benzoic acid]
II. NC(c1ccccc1)(c1ccccc1)c1ccccc1 [tritylamine]
Compare the recorded melting point of I and II ; state which is larger. Write down the label of the entry you select. I

----------
Assay Endpoint: melting point (°C)

Example compounds with recorded melting point:
Cc1cc(/C=C2\SC(=Nc3ccccc3)N=C2O)c(C)n1-c1ccc(F)cc1 [OSM-S-10]: 278
OCc1ccccc1 [benzyl alcohol]: -15
O=C1NN(c2ccccc2)C(=O)C1c1ccccc1 (stereo not given) [phenopyrazone]: 233
CCc1ccc2ccccc2c1 [2-ethylnaphthalene]: -7.35

a. CC(C)CCOC(=O)/C=C/c1ccc(/C=C/C(=O)OCCC(C)C)c([N+](=O)[O-])c1
b. O=c1ccn([C@@H]2C[C@H](O)[C@@H](CO)O2)c(=O)[nH]1 [2'-Deoxyuridine]
Compare the recorded melting point of a and b ; state which is larger. Write down the label of the entry you select. b

1. Brc1cccc2ccccc12 [1-bromonaphthalene]
2. Oc1ccc2ccc(O)cc2c1 [2,7-dihydroxynaphthalene]
3. CCCCCCCCCCOc1cc(N(NC(=O)OC(C)(C)C)C(=O)OC(C)(C)C)cc(OCCCCCCCCCC)c1OCCCCCCCCCC
4. C1CCC1 [cyclobutane]
Sequence the entries by melting point, beginning with the highest number. Could you list the labels in the order requested? 2, 3, 1, 4

1. C/C(=C(/C)c1ccccc1)c1ccccc1 [[(1E)-1-Methyl-2-phenyl-1-propenyl]benzene]
2. Cc1cccc(B(O)O)c1C [2,3-dimethylbenzeneboronic acid]
Compare the recorded melting point of 1 and 2 ; state which is larger. Write down the label of the entry you select. 2
(2: 175 °C, 1: 65 °C)

I. CCOC(=O)c1ccc(N)cc1 [ethyl p-aminobenzoate]
II. Nc1ccc(-c2ccc3nn(-c4ccccc4)nc3c2)cc1 [4-(2-phenyl-2H-benzotriazol-5-yl)aniline]
Smaller melting point value? Options are I and II Write down the label of the entry you select. I
(I: 89 °C, II: 143 °C)

----------
Assay Endpoint: melting point (°C)

Example compounds with recorded melting point:
CC(C)C(C)C [2,3-Dimethylbutane]: -128
O=C(c1ccccc1)c1ccc(C(F)(F)F)cc1 [FXFFR DVR]: 116
Nc1c2c(nc3ccccc13)CCCC2O (stereo unspecified) [velnacrine]: 245
O=C(O)c1ccccc1OP(=O)(O)O [2-carboxyphenyl phosphate]: 164
CC(=O)C=Cc1oc2ccc(Cl)cc2c1-c1ccc(C)o1: 119
CCN(C)C [N,N-dimethylethylamine]: -140
ClCC1CO1 (stereo unspecified) [epichlorohydrin]: -57.1
O=C(c1ccccc1)c1ccccc1Cl [2-chlorobenzophenone]: 46
C=C[C@H]1C[N@@]2CC[C@H]1C[C@H]2[C@H](O)c1ccnc2ccccc12 [(8alpha,9R)-Cinchonan-9-ol]: 200
COc1ccccc1C(=O)O [2-methoxybenzoic acid]: 101

a. C/C=C/CCC [trans-2-hexene]
b. CCCc1cc(O)nc(S)n1 [6-Propyl-2-sulfanylpyrimidin-4-ol]
c. CC(C)(C)C1=CC(=O)C(=O)C(C(C)(C)C)=C1 [3,5-Di-tert-butyl-1,2-benzoquinone]
d. CCCCCCCCCCCCCCCCCCCC [N-eicosane]
Sequence the entries by melting point, beginning with the highest number. Could you list the labels in the order requested? b, c, d, a

I. CC(=O)Nc1nccs1 [2-acetamidothiazole]
II. N#Cc1ccc2ncsc2c1 [benzothiazole-6-carbonitrile]
Compare the recorded melting point of I and II ; state which is larger. Write down the label of the entry you select. I

a. Brc1nc2ccccc2[nH]1 [2-bromobenzimidazole]
b. Cc1ccccc1C1(C#N)Cc2ccccc2C(=O)O1 (stereo unspecified)
Compare the recorded melting point of a and b ; state which is larger. Write down the label of the entry you select. a

----------
Assay Endpoint: melting point (°C)

CC(C)Br [2-bromopropane]: -89
Clc1cc(Cl)c(Cl)c(Cl)c1Cl [pentachlorobenzene]: 86

a. Oc1cccc(O)c1O [1,2,3-trihydroxybenzene]
b. c1ccc2scnc2c1 [1,3-Benzothiazole]
Compare the recorded melting point of a and b ; state which is larger. Write down the label of the entry you select. a

1. CO[C@@H]1O[C@H](CO)[C@H](O)[C@H](O)[C@H]1O [methyl beta-d-galactopyranoside]
2. c1ccc2c3c([nH]c2c1)CCCC3 [1,2,3,4-tetrahydrocarbazole]
Smaller melting point value? Options are 1 and 2 Write down the label of the entry you select. 2

----------
Assay Endpoint: melting point (°C)

Example molecules with recorded melting point:
CC(C)(C)C=O: 6
N#Cc1cc(-c2ccccc2)cnc1Cl: 145
C[C@@H]1O[C@@H](O)[C@@H](O)[C@H](O)[C@@H]1O: 139
Cc1ccc(B(O)O)cc1F: 234
COc1ccc(CC#N)c(Cl)c1: 42

1. CC(=O)Nc1ccc(C2=NN(c3ccccc3)C(=O)C2)cc1
2. Cn1c2c(c3ccccc31)CCCC2 [N-methyl-1,2,3,4-tetrahydrocarbazole]
3. CCCCCCCCOc1ccc(C(=O)O)cc1
Ascending by melting point, please. Could you list the labels in the order requested? 2, 3, 1

1. O=Cc1ccc(Cl)cc1 [4-Chlorobenzaldehyde]
2. NC(=O)/C(=N\Nc1ccc(F)cc1)c1nc2ccccc2s1
Compare the recorded melting point of 1 and 2 ; state which is larger. Write down the label of the entry you select. 2
(2: 159 °C, 1: 46 °C)
